Biological target: T1, human 5T4-His protein (human, UniProt Q13641 32-355)
T1 construct: also called recombinant 5T4 protein (human 5T4-his tag); human 5T4 protein; not shown: His tag
T1 sequence (looked up): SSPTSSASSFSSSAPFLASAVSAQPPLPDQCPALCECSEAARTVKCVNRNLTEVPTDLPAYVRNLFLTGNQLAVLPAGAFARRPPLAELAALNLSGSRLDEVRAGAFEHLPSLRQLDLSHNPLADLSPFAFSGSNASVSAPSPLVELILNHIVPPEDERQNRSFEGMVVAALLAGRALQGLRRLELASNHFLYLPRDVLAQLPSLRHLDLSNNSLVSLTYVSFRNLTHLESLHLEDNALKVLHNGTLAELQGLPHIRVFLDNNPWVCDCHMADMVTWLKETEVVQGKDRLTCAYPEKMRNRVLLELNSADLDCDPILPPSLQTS
Experiment: SPR Biacore, Protein A capture
measured attribute: pKd
Here pKd is given on a logarithmic scale as minus log10 of the concentration in mol/L.

**Query** Sample 393E9_hVH6_hVL5 (antibody, V domains shown, humanized) VH: EVQLVESGGGLVQPGGSLRLSCAASGFTFTDYYMSWVRQAPGKGLEWVGFIRNKGNGYTTENSASVKGRFTISRDNAKSSLYLQMNSLRAEDTAVYYCARYRGNPHYAMDYWGQGTLVTVSS VL: EIVLTQSPGTLSLSPGERATLSCRASESVEFYGTSFLQWYQQKPGQAPRLLIYGASNVESGIPDRFSGSGSGTDFTLTISRLEPEDIAVYFCQQSRKVPSTFGGGTKVEIK — what was its pKd?
**Result** 9.24

**Query** Would you mind telling me what pKd value was observed for 393E9_hVH4_hVL2 (antibody, V domains shown, humanized) VH: EVQLVESGGGLVQPGGSLRLSCAASGFTFTDYYMSWVRQAPGKGLEWVGFIRNKGNGYTTENSASVKGRFTISRDNSKSSLYLQMNSLKTEDTAVYYCARYRGNPHYAMDYWGQGTLVTVSS VL: EIVLTQSPATLSVSPGERATLSCRASESVEFYGTSFLQWYQQKPGQAPRLLIYGASNVESGIPARFSGSGSGTEFTLTISSLQSEDIAVYFCQQSRKVPSTFGGGTKVEIK ?
**Result** 9.22

The values you see were collected from patent US20250154277A1.
